# inhibition at 0.1 µM annotations
biological target: EGFR del746_750 (Homo sapiens (Human), UniProt P00533, DEL746-750); assay: SelectScreen Lantha method (Eu-anti-GST antibody/tracer) for EGFR del746_750; format: binding; conditions: compound at 100 nM; read-out: % Inhibition against EGFR del745_750
Sequence (P00533 other isoform, or with tags, fused parts or gaps del E746-A750): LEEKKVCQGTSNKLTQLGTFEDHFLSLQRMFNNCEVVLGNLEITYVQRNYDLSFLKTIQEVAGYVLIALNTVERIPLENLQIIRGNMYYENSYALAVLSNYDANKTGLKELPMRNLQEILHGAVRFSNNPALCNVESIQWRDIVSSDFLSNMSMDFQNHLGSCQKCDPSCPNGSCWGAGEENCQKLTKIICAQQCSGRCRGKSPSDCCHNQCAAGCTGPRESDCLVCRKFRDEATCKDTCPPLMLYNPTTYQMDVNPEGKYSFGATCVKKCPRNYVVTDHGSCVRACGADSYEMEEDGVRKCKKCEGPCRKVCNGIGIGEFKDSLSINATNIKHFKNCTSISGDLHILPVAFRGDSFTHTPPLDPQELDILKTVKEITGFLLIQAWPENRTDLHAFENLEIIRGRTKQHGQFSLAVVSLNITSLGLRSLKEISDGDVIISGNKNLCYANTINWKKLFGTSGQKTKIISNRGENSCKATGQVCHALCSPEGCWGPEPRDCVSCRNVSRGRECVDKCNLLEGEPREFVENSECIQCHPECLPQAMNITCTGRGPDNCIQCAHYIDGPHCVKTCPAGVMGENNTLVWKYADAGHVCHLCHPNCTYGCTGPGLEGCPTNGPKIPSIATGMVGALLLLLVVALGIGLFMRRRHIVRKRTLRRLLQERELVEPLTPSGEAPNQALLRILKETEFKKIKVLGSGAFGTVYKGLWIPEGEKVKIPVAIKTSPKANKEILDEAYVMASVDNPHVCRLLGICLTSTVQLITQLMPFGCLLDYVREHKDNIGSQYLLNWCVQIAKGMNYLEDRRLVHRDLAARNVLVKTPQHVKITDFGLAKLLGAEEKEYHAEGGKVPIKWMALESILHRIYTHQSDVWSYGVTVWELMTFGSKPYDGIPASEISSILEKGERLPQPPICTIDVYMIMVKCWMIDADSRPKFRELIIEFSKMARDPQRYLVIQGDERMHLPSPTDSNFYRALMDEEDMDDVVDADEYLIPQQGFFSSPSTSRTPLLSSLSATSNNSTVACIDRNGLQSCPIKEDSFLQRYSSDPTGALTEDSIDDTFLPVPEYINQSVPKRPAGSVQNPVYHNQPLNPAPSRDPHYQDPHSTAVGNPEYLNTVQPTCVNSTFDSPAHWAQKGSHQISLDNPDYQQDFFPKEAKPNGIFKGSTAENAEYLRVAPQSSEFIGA

Example entries begin here.
[[record]]
molecule = "C=CC(=O)Nc1cccc(-c2cc(-c3cccc(F)c3)cc3cncnc23)c1"
result = "> 50%"

[[record]]
molecule = "C=CC(=O)Nc1cccc(-c2cc(-c3ccc(C(=O)Nc4cccc(C(F)(F)F)c4)cc3)cc3cncnc23)c1"
result = "> 50%"


The molecule C=CC(=O)Nc1cccc(-c2cc(-c3ccccc3Cl)cc3cncnc23)c1 showed inhibition at 0.1 µM equal to > 50%

The molecule C=CC(=O)Nc1cccc(-c2cc(-c3ccc(C(=O)Nc4ccccn4)cc3)cc3cncnc23)c1 showed inhibition at 0.1 µM equal to < 50%

The molecule C=CC(=O)Nc1cccc(-c2cc(-c3cccnc3)cc3cnc(Nc4ccccc4)nc23)c1 showed inhibition at 0.1 µM equal to > 50%

---

biological target: BTK (Homo sapiens (Human), UniProt Q06187); assay: Z'-LYTE kinase inhibition assay against BTK; assay type: biochemical; conditions: compound at 100 nM; ATP concentration at Km
Sequence (Q06187 whole entry): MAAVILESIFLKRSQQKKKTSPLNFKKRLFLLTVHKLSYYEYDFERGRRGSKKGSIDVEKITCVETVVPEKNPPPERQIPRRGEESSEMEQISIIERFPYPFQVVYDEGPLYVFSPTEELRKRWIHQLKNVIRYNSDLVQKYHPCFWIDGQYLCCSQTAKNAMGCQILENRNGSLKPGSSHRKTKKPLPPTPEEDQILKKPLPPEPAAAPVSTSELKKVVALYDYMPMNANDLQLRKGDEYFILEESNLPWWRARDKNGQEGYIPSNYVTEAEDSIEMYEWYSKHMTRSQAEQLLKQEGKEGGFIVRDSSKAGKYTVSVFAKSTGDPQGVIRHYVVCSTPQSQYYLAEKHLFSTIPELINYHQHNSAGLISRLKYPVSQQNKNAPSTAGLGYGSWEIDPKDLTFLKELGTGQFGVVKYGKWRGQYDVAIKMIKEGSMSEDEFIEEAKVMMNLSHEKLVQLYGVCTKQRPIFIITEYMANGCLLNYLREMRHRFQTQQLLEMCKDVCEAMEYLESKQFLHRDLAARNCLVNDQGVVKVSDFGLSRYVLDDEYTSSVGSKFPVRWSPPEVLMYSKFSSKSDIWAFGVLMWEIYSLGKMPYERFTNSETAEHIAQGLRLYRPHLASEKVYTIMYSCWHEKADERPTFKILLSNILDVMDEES
Measured attribute: inhibition at 0.1 µM

[[record]]
molecule = "C=CC(=O)Nc1cccc(-c2cc(-c3ccc(C(=O)Nc4cc(C(F)(F)F)ccn4)c(OC)c3)cc3cncnc23)c1 [C145]"
result = "< 50%"

[[record]]
molecule = "C=CC(=O)Nc1cccc(-c2cc(-c3ccccc3C#N)cc3cncnc23)c1 [C075]"
result = "> 50%"

[[record]]
molecule = "C=CC(=O)N1CCC(c2cc(-c3ccc(C(=O)Nc4cccc(C)c4)nc3)cc3cncnc23)C1 (centres unmarked) [C080]"
result = "< 50%"

[[record]]
molecule = "C=CC(=O)Nc1cccc(-c2cc(-c3cncc(F)c3)cc3cnc(N)nc23)c1 [C111]"
result = "> 50%"

[[record]]
molecule = "C=CC(=O)Nc1cccc(-c2cc(-c3cccnc3)cc3cnc(N)nc23)c1 [C035]"
result = "> 50%"

[[record]]
molecule = "C=CC(=O)Nc1cccc(-c2cc(-c3cccc(Nc4ccccc4)c3)cc3cncnc23)c1 [C017]"
result = "> 50%"

[[record]]
molecule = "C=CC(=O)N1CCC(c2cc(-c3ccc(C(=O)Nc4ccccc4)cc3)n3cnccc23)C1 (centres unmarked) [C054]"
result = "< 50%"


The molecule C=CC(=O)Nc1cccc(-c2cc(-c3ccc(Oc4ccccn4)cc3F)c(N)c3cncnc23)c1 [C173] showed inhibition at 0.1 µM equal to < 50%

---

# inhibition at 0.1 µM annotations
target: BTK (Homo sapiens (Human), UniProt Q06187); assay: Z'-LYTE kinase inhibition assay against BTK; type: biochemical; details: compound at 100 nM; ATP concentration at Km

Example entries begin here.
[[record]]
compound = "C=CC(=O)Nc1cccc(-c2cc(-c3ccc(C(=O)Nc4cccc(C)c4)nc3)cc3cncnc23)c1"
tested_target = "BTK (Homo sapiens (Human), UniProt Q06187)"
measured_attribute = "inhibition at 0.1 µM"
result = "< 50%"

[[record]]
compound = "C=CC(=O)Nc1cccc(-c2cc(-c3ccc(C(=O)Nc4cc(C5CC5)ccn4)cc3)c(N)c3cncnc23)c1"
tested_target = "BTK (Homo sapiens (Human), UniProt Q06187)"
measured_attribute = "inhibition at 0.1 µM"
result = "> 50%"

[[record]]
compound = "C=CC(=O)Nc1cccc(-c2cc(-c3ccc(C(=O)Nc4cc(C5CC5)ccn4)cc3Cl)cc3cncnc23)c1"
tested_target = "BTK (Homo sapiens (Human), UniProt Q06187)"
measured_attribute = "inhibition at 0.1 µM"
result = "> 50%"

[[record]]
compound = "C=CC(=O)N1CCCC(c2ccc(-c3ccc(C(=O)Nc4ccccn4)cc3)c3cncnc23)C1 (stereo not shown)"
tested_target = "BTK (Homo sapiens (Human), UniProt Q06187)"
measured_attribute = "inhibition at 0.1 µM"
result = "< 50%"

[[record]]
compound = "C=CC(=O)Nc1cccc(-n2c(-c3ccccc3)nc3cnc(N)nc32)c1"
tested_target = "BTK (Homo sapiens (Human), UniProt Q06187)"
measured_attribute = "inhibition at 0.1 µM"
result = "< 50%"

[[record]]
compound = "C=CC(=O)Nc1cccc(-c2cc(-c3ccccc3)cc3cnc(N)nc23)c1"
tested_target = "BTK (Homo sapiens (Human), UniProt Q06187)"
measured_attribute = "inhibition at 0.1 µM"
result = "> 50%"


The reported BTK (Homo sapiens (Human), UniProt Q06187) inhibition at 0.1 µM of C=CC(=O)N1CCC(c2nc(-c3ccc(Oc4ccccn4)cc3)n3c(N)nccc23)C1 (racemic) [C224] is > 50%

The reported BTK (Homo sapiens (Human), UniProt Q06187) inhibition at 0.1 µM of C=CC(=O)N1CCC(c2cc(-c3ccccc3)cc3cnc(N)nc23)C1 (stereo not shown) is < 50%

The reported BTK (Homo sapiens (Human), UniProt Q06187) inhibition at 0.1 µM of C=CC(=O)Nc1cccc(-c2cc(-c3ccccc3Cl)cc3cnc(N)nc23)c1 is > 50%

The reported BTK (Homo sapiens (Human), UniProt Q06187) inhibition at 0.1 µM of C=CC(=O)N1CCC(c2cc(-c3ccccc3F)cc3cncnc23)C1 (stereo not shown) is < 50%

The reported BTK (Homo sapiens (Human), UniProt Q06187) inhibition at 0.1 µM of C=CC(=O)N1CCC=C(c2cc(-c3ccc(C(=O)Nc4ccccn4)cc3)cc3cncnc23)C1 is < 50%

---

Target: UniProtKB Q06187
Experiment: Z'-LYTE kinase inhibition assay against BTK
Type: biochemical
Conditions: compound at 100 nM; ATP concentration at Km
Protocol: Inhibitory activities of compounds against BTK, EGFR T790M, EGFR L858R, and EGFR L858R/T790M were measured using Z′-LYTE® Method from Life Technologies as briefly described in the following. Test Compounds are screened in 1% DMSO (final) in the well. For 10 point titrations, 3-fold serial dilutions are conducted from the starting concentration. All ATP Solutions are diluted to a 4× working concentration in Kinase Buffer (50 mM HEPES pH 7.5, 0.01% BRIJ-35, 10 mM MgCl2, 1 mM EGTA). […]
# inhibition at 0.1 µM annotations

Example entries begin here.
[[record]]
molecule = "C=CC(=O)Nc1cccc(-c2cc(-c3ccc(C(=O)Nc4cc(C(F)(F)F)ccn4)c(F)c3)cc3cncnc23)c1"
measured_attribute = "inhibition at 0.1 µM"
result = "< 50%"

[[record]]
molecule = "C=CC(=O)N1CCC(c2cc(-c3ccc(Oc4ccccn4)c(OC)c3)cc3cncnc23)C1 (stereo not drawn)"
measured_attribute = "inhibition at 0.1 µM"
result = "< 50%"

[[record]]
molecule = "C=CC(=O)Nc1cccc(-c2cc(-c3ccc(Oc4cc(C(N)=O)ccn4)cc3)cc3cncnc23)c1"
measured_attribute = "inhibition at 0.1 µM"
result = "> 50%"

[[record]]
molecule = "C=CC(=O)N1CCC(c2cc(-c3ccc(Oc4ccccn4)cc3)c(N)c3cncnc23)C1 (stereo not drawn)"
measured_attribute = "inhibition at 0.1 µM"
result = "< 50%"

[[record]]
molecule = "C=CC(=O)Nc1cccc(-c2cc(-c3ccccc3Cl)cc3cnc(-c4ccccc4)nc23)c1"
measured_attribute = "inhibition at 0.1 µM"
result = "< 50%"

[[record]]
molecule = "C=CC(=O)N1CCC(c2cc(-c3ccc(Oc4ccccn4)cc3F)cc3cnc(N)nc23)C1 (stereo not drawn)"
measured_attribute = "inhibition at 0.1 µM"
result = "< 50%"

[[record]]
molecule = "C=CC(=O)Nc1cccc(-c2cc(-c3ccc(C(=O)Nc4cc(C5CC5)ccn4)cc3)cc3cncnc23)c1"
measured_attribute = "inhibition at 0.1 µM"
result = "> 50%"

[[record]]
molecule = "C=CC(=O)Nc1cccc(-c2cc(-c3ccc(C(=O)Nc4cc(C#N)ccn4)c(OC)c3)cc3cncnc23)c1"
measured_attribute = "inhibition at 0.1 µM"
result = "< 50%"

[[record]]
molecule = "C=CC(=O)Nc1cccc(-c2cc(-c3ccc(C(=O)Nc4cc(C#N)ccn4)cc3Cl)cc3cncnc23)c1"
measured_attribute = "inhibition at 0.1 µM"
result = "> 50%"

[[record]]
molecule = "C=CC(=O)Nc1cccc(-c2cc(-c3ccc(Oc4ccccc4)cc3)n3cnccc23)c1"
measured_attribute = "inhibition at 0.1 µM"
result = "< 50%"


The molecule C=CC(=O)Nc1cccc(-c2cc(-c3ccc(C(=O)Nc4cc(C5CC5)ccn4)c(F)c3)cc3cncnc23)c1 showed inhibition at 0.1 µM equal to > 50%

The molecule C=CC(=O)N1CCC(c2cc(-c3ccc(Oc4cc(C(F)(F)F)ccn4)cc3F)cc3cncnc23)C1 (stereo not drawn) showed inhibition at 0.1 µM equal to < 50%

The molecule C=CC(=O)N1CCC(c2cc(-c3ccc(Oc4ccccn4)cc3F)n3cnccc23)C1 (stereo not drawn) showed inhibition at 0.1 µM equal to < 50%
